Study target: A2a receptors, rabbit striatum (Oryctolagus cuniculus)
Sequence (G1SVQ2 1-409): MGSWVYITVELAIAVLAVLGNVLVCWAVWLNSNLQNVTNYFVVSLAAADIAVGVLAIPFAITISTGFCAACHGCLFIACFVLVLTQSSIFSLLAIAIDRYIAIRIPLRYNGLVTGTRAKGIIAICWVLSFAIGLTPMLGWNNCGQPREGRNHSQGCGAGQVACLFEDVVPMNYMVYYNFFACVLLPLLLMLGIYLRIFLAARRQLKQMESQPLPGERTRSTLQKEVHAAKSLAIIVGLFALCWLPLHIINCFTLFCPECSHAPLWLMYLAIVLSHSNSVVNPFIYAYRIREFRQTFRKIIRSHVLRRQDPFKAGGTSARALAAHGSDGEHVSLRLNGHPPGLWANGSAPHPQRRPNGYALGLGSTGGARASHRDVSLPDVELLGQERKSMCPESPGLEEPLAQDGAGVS
Measured metric: pIC50
Bear in mind: pIC50 is minus log10 of a mol/L concentration; give just that figure.

Prompt: Please list pIC50 recorded for the molecule Cn1c(=O)c2c(nc(/C=C/c3cccc(N=C=S)c3)n2C)n(C)c1=O [Compound 28e]
Response: 6.38

---

Study target: rat A1 cortical receptors (Rattus norvegicus)
Construct: Rat cerebral cortical membranes and striatal membranes were prepared; from tissue; host or cells: rat cerebral cortex membranes
Sequence (P25099 whole entry): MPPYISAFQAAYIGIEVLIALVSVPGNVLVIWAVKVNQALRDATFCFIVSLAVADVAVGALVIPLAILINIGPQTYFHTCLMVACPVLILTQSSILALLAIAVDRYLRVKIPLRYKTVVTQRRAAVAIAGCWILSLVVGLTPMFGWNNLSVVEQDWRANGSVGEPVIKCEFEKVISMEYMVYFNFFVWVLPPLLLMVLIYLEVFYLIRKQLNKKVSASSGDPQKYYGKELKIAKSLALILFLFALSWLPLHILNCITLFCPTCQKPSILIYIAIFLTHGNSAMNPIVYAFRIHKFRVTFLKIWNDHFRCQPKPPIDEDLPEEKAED
Assay overview: Radioligand binding, [3H]N6-phenylisopropyladenosine ([3H]PIA), rat cortical A1 receptors
Condition notes: 1.5 h; at 10^-5; vs [3H]PIA; read-out: Percent displacement of specific binding (A1)
Measured metric: inhibition at 10 µM (%)
Only the number, expressed in %, is required.

Sample answers from the record:
compound=COc1cc(/C=C/c2nc3c(c(=O)n(C)c(=O)n3C)n2C)cc(OC)c1OC/C=C/CNC(=O)OC(C)(C)C assay_value=11
compound="COc1cc(/C=C/c2nc3c(c(=O)n(C)c(=O)n3C)n2CCc2ccccc2)cc(OC)c1OC [Compound 44f]" assay_value=32

Prompt: Please list inhibition at 10 µM recorded for the compound COc1cc(/C=C/c2nc3c(c(=O)n(C)c(=O)n3C)n2CCO)cc(OC)c1OC [Compound 44d]
Response: 26
